Tested on: NBD1
Experiment: Aggregation analysis of NBD1 thermal stability by differential static light scattering (DSLS)
Format: binding, Human
Details: compound at 100 μM; ΔTagg versus DMSO control
observable: DSLS NBD1/3D Human Stability delta-T (° C.) @ 100 (μM)

- compound: "CC(O)(c1ccccc1)c1cnc(-c2cccc(Oc3c(F)cc4[nH]ccc4c3S(C)(=O)=O)c2)[nH]1 (stereo not drawn)"
  result: "A (T ≥8° C.)"
- compound: "CC(=O)NCc1c(Oc2cccc(-c3nnc(Cc4ccccc4)[nH]3)c2)ccc2[nH]ccc12"
  result: "B (4-8° C.)"
- compound: "c1ccc(Cc2nnc(-c3cccc(Oc4ccc5[nH]cc6c5c4CNCC6)c3)[nH]2)cc1"
  result: "C (≤4° C.)"
- compound: "CC(C)(O)c1nc(-c2cc(Oc3c(F)cc4[nH]ccc4c3S(C)(=O)=O)ccc2F)[nH]c1Cc1ccccc1"
  result: "B (4-8° C.)"
- compound: "CC(C)NCc1c(Oc2cccc(-c3nnc(Cc4ccccc4)[nH]3)c2)ccc2[nH]ccc12 [Example 21, 2,2,2-trifluoroacetate]"
  result: "B (4-8° C.)"
- compound: "COC(=O)c1c(Oc2cccc(-c3ncc(C(C)(O)c4ccccc4)[nH]3)c2)c(F)cc2[nH]ccc12 (stereo not drawn)"
  result: "B (4-8° C.)"
- compound: "CC(O)(c1ccccc1)c1c[nH]c(-c2cc(Oc3c(F)cc4[nH]ccc4c3CC(F)F)ccc2F)n1 (stereo not drawn)"
  result: "B (4-8° C.)"
- compound: "OC(c1cccc(-c2nnc(Cc3ccccc3)[nH]2)c1)c1ccc2[nH]ccc2c1 (single isomer, unassigned) [Example 35A]"
  result: "B (4-8° C.)"

Then this compound:
Can you look up DSLS NBD1/3D Human Stability delta-T (° C.) @ 100 (μM) on NBD1 for O=C(O)c1c(Oc2cccc(-c3nc(C(O)(c4ccccc4)C(F)(F)F)n[nH]3)c2)ccc2[nH]ccc12 (stereo not drawn) ?
C (≤4° C.)
